# Study target: T1, Abeta-42 plaque particles (Homo sapiens, UniProt P05067)
# T1 construct: Abeta 1-42
# Experiment: Mass spectroscopy proteomics, semi-quantitative binding affinity of serum proteins (plaqueproteome, Table 2)
# Assay conditions: higher number = stronger affinity
Kindly supply the reported Semi-quantitative analysis of proteins binding to different plaque particles: Abeta-42 values for the records listed here.
Answers are plain numbers.

Molecule	Measurement
Dermcidin (protein) YDPEAASAPGSGNPCHEASAAQKENAGEDPGLARQAPKPRKQRSSLLEKGLDGAKKAVGGLGKLGKDAVEDLESVGKGAVHDVKDVLDSVL	2
Tetranectin (protein) EPPTQKPKKIVNAKKDVVNTKMFEELKSRLDTLAQEVALLKEQQALQTVCLKGTKVHMKCFLAFTQTKTFHEASEDCISRGGTLGTPQTGSENDALYEYLRQSVGNEAEIWLGLNDMAAEGTWVDMTGARIAYKNWETEITAQPDGGKTENCAVLSGAANGKWFDKRCRDQLPYICQFGIV	0
Immunoglobulin lambda-like polypeptide 1 (protein) LLRPTAASQSRALGPGAPGGSSRSSLRSRWGRFLLQRGSWTGPRCWPRGFQSKHNSVTHVFGSGTQLTVLSQPKATPSVTLFPPSSEELQANKATLVCLMNDFYPGILTVTWKADGTPITQGVEMTTPSKQSNNKYAASSYLSLTPEQWRSRRSYSCQVMHEGSTVEKTVAPAECS	0

get_value(item= Ig lambda chain V-III region LOI (protein) VTSYVLTQPPSVSVAPGQTARITCGGNNIGSKSVHWYQQKPGQAPVLVVYDDSDRPSGIPERFSGSNSGNTATLTISRVEAGDEADYYCQVWDSSSDHPT , readout=Semi-quantitative analysis of proteins binding to different plaque particles: Abeta-42) returns 2
